From: paper PMC6895199

Target: HuNoV (GII.4) RdRp (Norovirus Hu/GII.4/Sydney/NSW0514/2012/AU, UniProt K4L8Z7)
Assay: Quantitative fluorescent RdRp activity assay (PicoGreen, poly(C) template)
Conditions: HuNoV (GII.4) RdRp activity; six concentrations 0.1–100 µM; mean ± SD
Description: The newly synthesised compounds, including the carboxylate ester derivatives 34–35 and 7 from the Core Hopping approach, were evaluated for their enzymatic inhibition of human norovirus Sydney 2012 (HuNoV (GII.4)) RdRp activity in vitro, using a quantitative fluorescent assay. […] The newly prepared compounds 48–60 were initially evaluated against norovirus Sydney 2012 RdRp activity in vitro using a quantitative fluorescent assay. […]
quantity.measured: IC50 (µM)
Write the value in µM as a bare number.

[[record]]
compound = "CCOC(=O)c1ccc(N2NC(=O)/C(=C\\c3ccc(-c4ccc(S(=O)(=O)Nc5ccccc5)cc4)o3)C2=O)cc1"
recorded_result = 13.5

[[record]]
compound = "CCOC(=O)c1cccc(N2NC(=O)/C(=C\\c3ccc(-c4ccc(S(=O)(=O)Nc5ccccc5)cc4)o3)C2=O)c1"
recorded_result = 18.9

[[record]]
compound = "O=C1NN(c2ccc(C(=O)O)cc2)C(=O)/C1=C/c1ccc(-c2ccc(S(=O)(=O)Nc3ccccc3)cc2)o1"
recorded_result = 17.2


Using known records, supply IC50 for O=C1NN(c2ccccc2)C(=O)/C1=C/c1ccc(-c2ccc(S(=O)(=O)Nc3ncco3)cc2)o1 12.8

Using known records, supply IC50 for O=C1NN(c2ccccc2)C(=O)/C1=C/c1ccc(-c2ccc(S(=O)(=O)Nc3nc4ccccc4[nH]3)cc2)o1 26.7

Using known records, supply IC50 for O=C1NN(c2cccc(C(=O)O)c2)C(=O)/C1=C/c1ccc(-c2ccc(S(=O)(=O)Nc3ccccc3)cc2)o1 22.5

Using known records, supply IC50 for Cc1nc(N=Nc2cc(S(=O)(=O)[O-])c3cc([N+](=O)[O-])cc(S(=O)(=O)[O-])c3c2)c(COP(=O)([O-])[O-])c(C=O)c1O.[Na+].[Na+].[Na+].[Na+] [PPNDS, reference compound] 1.5

----------
system: MNV; experiment: MNV CPE reduction assay (MTS) in RAW 264.7 cells; format: cell-based, mouse norovirus (MNV-1.CW1); conditions: Norovirus, RAW264.7, in Mus musculus, Table 2, RAW 264.7, range 0.6–100 µM, at least three independent experiments
Listing of entries alongside the reported EC50.
Write the value in µM as a bare number.

Please review the entries below; each comes with its answer.
[[record]]
molecule = "Cc1ccc(C(=O)NC(=S)Nc2ccc(N3CCN(C(=O)c4cccs4)CC3)cc2)cc1"
quantity_measured = "EC50"
recorded_result = 45.1

[[record]]
molecule = "O=C(NC(=S)Nc1ccc(N2CCN(C(=O)c3cccs3)CC2)cc1)c1sc2ccccc2c1Cl [Compound 48, reference compound]"
quantity_measured = "EC50"
recorded_result = 58.2


Using known records, supply EC50 for C[C@@]1(O)[C@H](O)[C@@H](CO)O[C@H]1n1ccc(N)nc1=O [Compound 2CMC, 2′-C-methylcytidine, reference compound] 2

Using known records, supply EC50 for O=C(NC(=S)Nc1ccc(N2CCN(S(=O)(=O)c3cccs3)CC2)cc1)c1ccccc1 43.8

Using known records, supply EC50 for O=C(NC(=S)Nc1ccc(N2CCN(S(=O)(=O)c3ccccc3)CC2)cc1)c1ccccc1 66.6

Using known records, supply EC50 for O=C(NC(=S)Nc1ccc(N2CCN(C(=O)c3nccs3)CC2)cc1)c1sc2ccccc2c1Cl 66.1

----------
Listing of entries alongside the reported inhibition at 20 µM.
biological target: HuNoV (GII.4) RdRp (Norovirus Hu/GII.4/Sydney/NSW0514/2012/AU, UniProt K4L8Z7); experiment: Quantitative fluorescent RdRp activity assay (PicoGreen, poly(C) template); format: biochemical, human norovirus Sydney 2012; details: 20 µM; read-out: inhibition of HuNoV RdRp activity at fixed concentration

Please review the entries below; each comes with its answer.
[[record]]
smiles_code = "O=C(NC(=S)Nc1ccc(N2CCN(C(=O)c3nccs3)CC2)cc1)c1ccccc1"
quantity_measured = "inhibition at 20 µM"
recorded_result = "~20%"

[[record]]
smiles_code = "O=C(NC(=S)Nc1ccc(N2CCN(C(=O)c3ccccc3)CC2)cc1)c1sc2ccccc2c1Cl"
quantity_measured = "inhibition at 20 µM"
recorded_result = "≤ 60%"

[[record]]
smiles_code = "Cc1ccc(C(=O)NC(=S)Nc2ccc(N3CCN(C(=O)c4cccs4)CC3)cc2)cc1"
quantity_measured = "inhibition at 20 µM"
recorded_result = "~15%"

[[record]]
smiles_code = "O=C(NC(=S)Nc1ccc(N2CCN(C(=O)c3cccs3)CC2)cc1)c1ccccc1"
quantity_measured = "inhibition at 20 µM"
recorded_result = "~15%"

[[record]]
smiles_code = "O=C(NC(=S)Nc1ccc(N2CCN(C(=O)c3cccs3)CC2)cc1)c1cc2ccccc2s1"
quantity_measured = "inhibition at 20 µM"
recorded_result = "15 to 20%"

[[record]]
smiles_code = "O=C(NC(=S)Nc1ccc(N2CCN(C(=O)c3ccco3)CC2)cc1)c1sc2ccccc2c1Cl"
quantity_measured = "inhibition at 20 µM"
recorded_result = "≤ 60%"

[[record]]
smiles_code = "O=C(Nc1ccc(N2CCN(C(=O)c3cccs3)CC2)cc1)c1ccccc1"
quantity_measured = "inhibition at 20 µM"
recorded_result = "~40%"


For HuNoV (GII.4) RdRp (Norovirus Hu/GII.4/Sydney/NSW0514/2012/AU, UniProt K4L8Z7), give the measured inhibition at 20 µM of the entry O=C(NC(=S)Nc1ccc(N2CCN(C(=O)c3cccs3)CC2)cc1)c1sc2ccccc2c1C(F)(F)F 15 to 20%

----------
test: Cytotoxicity by the MTS method on uninfected cells; type: cell-based; details: mouse, uninfected RAW 264.7 cells, Table 2, at least three independent experiments
Listing of entries alongside the reported CC50 at 3 days.

[[record]]
compound = "O=C(NC(=S)Nc1ccc(N2CCN(S(=O)(=O)c3ccccc3)CC2)cc1)c1ccccc1 [Compound 60]"
recorded_result = "> 100 µM"

[[record]]
compound = "O=C(NC(=S)Nc1ccc(N2CCN(C(=O)c3nccs3)CC2)cc1)c1sc2ccccc2c1Cl [Compound 56]"
recorded_result = "> 100 µM"

[[record]]
compound = "O=C(NC(=S)Nc1ccc(N2CCN(C(=O)c3cccs3)CC2)cc1)c1sc2ccccc2c1Cl [Compound 48, reference compound]"
recorded_result = "> 100 µM"


# input for lookup
Using known records, supply CC50 at 3 days for O=C(NC(=S)Nc1ccc(N2CCN(C(=O)c3ccccc3)CC2)cc1)c1sc2ccccc2c1Cl [Compound 54] 4.5 µM

----------
Listing of entries alongside the reported CC50 at 3 days.
experiment: Cytotoxicity by the MTS method on uninfected cells; assay type: cell-based; details: mouse, uninfected RAW 264.7 cells, Table 2, at least three independent experiments
Write the value in µM as a bare number.

[[record]]
molecule = "C[C@@]1(O)[C@H](O)[C@@H](CO)O[C@H]1n1ccc(N)nc1=O [Compound 2CMC, 2′-C-methylcytidine, reference compound]"
quantity_measured = "CC50 at 3 days"
recorded_result = 16


# input for lookup
Using known records, supply CC50 at 3 days for O=C(NC(=S)Nc1ccc(N2CCN(C(=O)c3ccco3)CC2)cc1)c1sc2ccccc2c1Cl 9.4
